The entries below come with measured TFE3 % values attached.
# Test system: endogenous TFE3
# Assay Procedure: TFE3 nuclear translocation, immunocytochemistry high-content imaging
# Type: cell-based
# Test Conditions: PKIS2 primary screening
Answer with a number only, understood to be in %.

| Compound | Unit Of Measurement | TFE3 % |
| --- | --- | --- |
| COc1cccc(-c2nc(-c3ccccc3)[nH]c2-c2ccncc2)c1 [UNC10225025A] | % | 10.01 |
| Cl.O=C(Nc1cccc(-c2nn3ncccc3c2-c2ccnc(Nc3cccnc3)n2)c1)c1c(F)cccc1F [UNC10225440A] | % | 9.74 |
| Nc1nc(-c2ccccn2)c(-c2ccnc3ccccc23)s1 [UNC10225201A] | % | 10.28 |

Now examine the next entry.
// returns reported TFE3 % for input CN1C(=O)C(Nc2ccc(Cl)c(C(=O)O)c2)=C(c2ccc(Cl)cc2)C1=O [UNC10225406A]
10.12

----------
# Tested on: SH-SY5Y cells
# Test Conditions: PKIS2 primary screening, DQ Red BSA spot count
Value Type: DQ Spot
Could you keep your reply to the number by itself?

Lab note: need DQ Spot for CC(=O)Nc1ccc(COc2ccc(Nc3ccnc4cc(-c5ccccn5)ccc34)cc2)cc1.Cl [UNC10225390A] on SH-SY5Y cells, anyone have it?
42.67

Lab note: need DQ Spot for COc1cccc(-c2nc(-c3ccccc3)[nH]c2-c2ccncc2)c1 [UNC10225025A] on SH-SY5Y cells, anyone have it?
101.78

----------
# Tested on: SH-SY5Y cells
# Test Conditions: PKIS2 primary screening, DQ Red BSA spot count
Value Type: DQ Spot
Could you keep your reply to the number by itself?

// returns reported DQ Spot for input NCCNS(=O)(=O)c1ccc(-c2ccnc3[nH]ccc23)cc1 [UNC10225023B]
102.49

// returns reported DQ Spot for input COc1cc2nccc(Nc3ccc(OCc4ccc(NC(C)=O)cc4)cc3)c2cc1OC.Cl [UNC10225233A]
99.45

// returns reported DQ Spot for input COc1ccc2cc(-c3nc(-c4ccccc4C(C)C)[nH]c3-c3ccncc3)ccc2c1 [UNC10225291A]
102.77

// returns reported DQ Spot for input COc1ccc(C)c(Nc2ccnc(Nc3ccc(-c4cnc[nH]4)cc3)n2)c1 [GW784041]
101.33

----------
The entries below come with measured AK values attached.
# System: SH-SY5Y cells
# Assay Procedure: AK (adenylate kinase) release ToxiLight cytotoxicity assay; note: reference of the scale not given here
# Test Conditions: PKIS2 primary screening
Could you keep your reply to the number by itself?

These recorded examples may help you get a feel for the data.
| Compound | Measured On | AK |
| --- | --- | --- |
| Fc1ccc(-c2nn3c(OCC(F)(F)F)cccc3c2-c2ccncc2)cc1 [UNC10225249A] | SH-SY5Y cells | 70.84 |
| Cl.Oc1ccc(-c2nc(-c3ccccc3)[nH]c2-c2ccncc2)cc1 [UNC10225482A] | SH-SY5Y cells | 90.33 |
| Cc1cc(Nc2nc(-c3cccc(C)n3)nc3ccccc23)ccn1 | SH-SY5Y cells | 69.93 |
| Cl.Cl.NCC(NC(=O)c1cc(-c2ccccc2)c(-c2ccnc3[nH]ccc23)s1)c1ccccc1 (stereo not shown) [UNC10225466A] | SH-SY5Y cells | 133.16 |
| Cl.Cn1ccc(-c2cccc(Nc3ccnc4cc(-c5nccs5)ccc34)c2)n1 [UNC10225141A] | SH-SY5Y cells | 174.83 |
| Clc1cccc(-c2nc(Nc3ccncc3)c3ccccc3n2)c1 | SH-SY5Y cells | 129.21 |

// returns reported AK for input CN(C)CCOc1ccc(-c2cc(-c3c[nH]nc3-c3ccccn3)ccn2)cc1 [UNC10225226A]
93.65

// returns reported AK for input O=C(NCCCN1CCOCC1)c1cccc(Nc2nccc(Nc3ccc(Oc4ccccc4)cc3)n2)c1
108.46
